- method: Inhibition of dog kidney Na+,K+-ATPase by [32P]ATP hydrolysis method
- Parameters: species or system Canis lupus familiaris
List of IC50 values.
Kindly answer with a numeric value in µM, unit omitted.

Reference set (2 entries):
The recorded IC50 for "CNCCCO/N=C1/CC[C@@]2(C)[C@H](C1)C(=O)C[C@@H]1[C@@H]2CC[C@]2(C)C(=O)CC[C@@H]12" is 0.23

The recorded IC50 for "CC(C)(N)CO/N=C1/CC[C@@]2(C)[C@H](C1)C(=O)C[C@@H]1[C@@H]2CC[C@]2(C)C(=O)CC[C@@H]12" is 28.5

Continuing:
The recorded IC50 for "C[C@]12CC/C(=N/O[C@@H]3CCNC3)C[C@@H]1C(=O)C[C@@H]1[C@@H]2CC[C@]2(C)C(=O)CC[C@@H]12" is 0.25

###

List of pIC50 values.
- method: Inhibition of dog kidney Na+,K+-ATPase by [32P]ATP hydrolysis method
- Parameters: species or system Canis lupus familiaris
Bear in mind: pIC50 is minus log10 of a mol/L concentration; give just that figure.

Reference set (8 entries):
The recorded pIC50 for "C[C@]12CC/C(=N/OCCN)C[C@@H]1C(=O)C[C@@H]1[C@@H]2CC[C@]2(C)C(=O)CC[C@@H]12" is 6.20

The recorded pIC50 for CC12CCC3C(CC(=O)C4CC(=NOCCN)CCC43C)C1CCC2=O (stereo not drawn) is 6.96

The recorded pIC50 for "C[C@]12CC/C(=N\O[C@@H]3CCNC3)C[C@@H]1C(=O)C[C@@H]1[C@@H]2CC[C@]2(C)C(=O)CC[C@@H]12" is 7.80

The recorded pIC50 for "C[C@]12CC/C(=N/OCCNC(=N)N)C[C@@H]1C(=O)C[C@@H]1[C@@H]2CC[C@]2(C)C(=O)CC[C@@H]12" is 4.92

The recorded pIC50 for "C[C@]12CC/C(=N/OC3CNC3)C[C@@H]1C(=O)C[C@@H]1[C@@H]2CC[C@]2(C)C(=O)CC[C@@H]12" is 7.00

The recorded pIC50 for "CC(C)(CN)O/N=C1/CC[C@@]2(C)[C@H](C1)C(=O)C[C@@H]1[C@@H]2CC[C@]2(C)C(=O)CC[C@@H]12" is 7.68

The recorded pIC50 for "CN1CC[C@@H](O/N=C2/CC[C@@]3(C)[C@H](C2)C(=O)C[C@@H]2[C@@H]3CC[C@]3(C)C(=O)CC[C@@H]23)C1" is 5.89

The recorded pIC50 for "C[C@@H](N)CO/N=C1/CC[C@@]2(C)[C@H](C1)C(=O)C[C@@H]1[C@@H]2CC[C@]2(C)C(=O)CC[C@@H]12" is 6.42

Continuing:
The recorded pIC50 for "C[C@]12CC/C(=N/O[C@@H]3CCNC3)C[C@@H]1[C@H](O)C[C@@H]1[C@@H]2CC[C@]2(C)C(=O)CC[C@@H]12" is 6.07

The recorded pIC50 for "C[C@]12CC/C(=N/O[C@@H]3CCNC3)C[C@@H]1[C@@H](O)C[C@@H]1[C@@H]2CC[C@]2(C)C(=O)CC[C@@H]12" is 6.66

The recorded pIC50 for CNCCCO/N=C1/CC[C@@]2(C)[C@H](C1)C(O)C[C@@H]1[C@@H]2CC[C@]2(C)C(=O)CC[C@@H]12 (stereo partly drawn) is 6.04

The recorded pIC50 for "C[C@]12CC/C(=N\OC3CCNCC3)C[C@@H]1C(=O)C[C@@H]1[C@@H]2CC[C@]2(C)C(=O)CC[C@@H]12" is 5.96

The recorded pIC50 for C[C@H]1O[C@@H](O[C@H]2[C@@H](O)C[C@H](O[C@H]3[C@@H](O)C[C@H](O[C@H]4CC[C@@]5(C)[C@H](CC[C@@H]6[C@@H]5C[C@@H](O)[C@]5(C)[C@@H](C7=CC(=O)OC7)CC[C@]65O)C4)O[C@@H]3C)O[C@@H]2C)C[C@H](O)[C@@H]1O [DIGOXIN] is 6.66

###

- method: Inhibition of dog kidney Na+,K+-ATPase by [32P]ATP hydrolysis method
- Parameters: species or system Canis lupus familiaris
parameter: pIC50
Bear in mind: pIC50 is minus log10 of a mol/L concentration; give just that figure.

The recorded pIC50 for "C[C@]12CC/C(=N\OC[C@H]3CCCN3)C[C@@H]1C(=O)C[C@@H]1[C@@H]2CC[C@]2(C)C(=O)CC[C@@H]12" is 4.64

The recorded pIC50 for "CCCON=C1CC[C@@]2(C)[C@H](C1)C(=O)C[C@@H]1[C@@H]2CC[C@]2(C)C(=O)CC[C@@H]12" is 7.25

The recorded pIC50 for "CNCCO/N=C1/CC[C@@]2(C)[C@H](C1)C(=O)C[C@@H]1[C@@H]2CC[C@]2(C)C(=O)CC[C@@H]12" is 6.16

The recorded pIC50 for "CN1CC[C@H](O/N=C2/CC[C@@]3(C)[C@H](C2)C(=O)C[C@@H]2[C@@H]3CC[C@]3(C)C(=O)CC[C@@H]23)C1" is 4.39

The recorded pIC50 for "C[C@]12CC/C(=N/OCCCCN)C[C@@H]1C(=O)C[C@@H]1[C@@H]2CC[C@]2(C)C(=O)CC[C@@H]12" is 5.74

Here is another compound to look at.
The recorded pIC50 for "C[C@H](N)CO/N=C1/CC[C@@]2(C)[C@H](C1)C(=O)C[C@@H]1[C@@H]2CC[C@]2(C)C(=O)CC[C@@H]12" is 6.43

###

List of ED80 values.
- Tested on: Cavia porcellus
- method: […] effect in anesthetized guinea pig assessed as drug level inducing increase in dP/dtmax response
- Assay type: functional
Kindly answer with a numeric value in µmol/kg, unit omitted.

Reference set (4 entries):
The recorded ED80 for CC12CCC3C(CC(=O)C4CC(=NOCCN)CCC43C)C1CCC2=O (centres undefined) is 1.82

The recorded ED80 for "C[C@]12CC/C(=N/O[C@@H]3CCNC3)C[C@@H]1[C@H](O)C[C@@H]1[C@@H]2CC[C@]2(C)C(=O)CC[C@@H]12" is 3.92

The recorded ED80 for "C[C@]12CCC(=NO[C@@H]3CCNC3)C[C@@H]1C(=O)C[C@@H]1[C@@H]2CC[C@]2(C)C(=O)CC[C@@H]12" is 2.01

The recorded ED80 for "C[C@]12CC/C(=N\O[C@@H]3CCNC3)C[C@@H]1C(=O)C[C@@H]1[C@@H]2CC[C@]2(C)C(=O)CC[C@@H]12" is 0.75

Continuing:
The recorded ED80 for "C[C@]12CC/C(=N/O[C@@H]3CCNC3)C[C@@H]1C(=O)C[C@@H]1[C@@H]2CC[C@]2(C)C(=O)CC[C@@H]12" is 27.7

The recorded ED80 for C[C@H]1O[C@@H](O[C@H]2[C@@H](O)C[C@H](O[C@H]3[C@@H](O)C[C@H](O[C@H]4CC[C@@]5(C)[C@H](CC[C@@H]6[C@@H]5C[C@@H](O)[C@]5(C)[C@@H](C7=CC(=O)OC7)CC[C@]65O)C4)O[C@@H]3C)O[C@@H]2C)C[C@H](O)[C@@H]1O [DIGOXIN] is 0.41

The recorded ED80 for "CCCON=C1CC[C@@]2(C)[C@H](C1)C(=O)C[C@@H]1[C@@H]2CC[C@]2(C)C(=O)CC[C@@H]12" is 1.03

The recorded ED80 for "C[C@]12CC/C(=N/OCCN)C[C@@H]1C(=O)C[C@@H]1[C@@H]2CC[C@]2(C)C(=O)CC[C@@H]12" is 3.36

The recorded ED80 for "C[C@]12CC/C(=N/O[C@@H]3CCNC3)C[C@@H]1[C@@H](O)C[C@@H]1[C@@H]2CC[C@]2(C)C(=O)CC[C@@H]12" is 1.64

###

List of pIC50 values.
- method: Inhibition of dog kidney Na+,K+-ATPase by [32P]ATP hydrolysis method
- Set-up: species or system Canis lupus familiaris
Bear in mind: pIC50 is minus log10 of a mol/L concentration; give just that figure.

The recorded pIC50 for "C[C@]12CCC(=NO[C@@H]3CCNC3)C[C@@H]1C(=O)C[C@@H]1[C@@H]2CC[C@]2(C)C(=O)CC[C@@H]12" is 7.59

Continuing:
The recorded pIC50 for "C[C@]12CC/C(=N/O[C@H]3CCNC3)C[C@@H]1C(=O)C[C@@H]1[C@@H]2CC[C@]2(C)C(=O)CC[C@@H]12" is 6.62

The recorded pIC50 for C[C@]12CC/C(=N\OC3CCCNC3)C[C@@H]1C(=O)C[C@@H]1[C@@H]2CC[C@]2(C)C(=O)CC[C@@H]12 (mixture of isomers) is 4.48

The recorded pIC50 for "C[C@]12CC/C(=N/O[C@H]3CCNC3)C[C@@H]1[C@@H](O)C[C@@H]1[C@@H]2CC[C@]2(C)C(=O)CC[C@@H]12" is 6.04

The recorded pIC50 for "C[C@]12CC/C(=N\OC[C@@H]3CCCN3)C[C@@H]1C(=O)C[C@@H]1[C@@H]2CC[C@]2(C)C(=O)CC[C@@H]12" is 4.96
